tested on: Moraxella catarrhalis RA 21; assay: checkerboard synergy assay with iclaprim; format: cell-based; details: antibiotic in combination with iclaprim; M. catarrhalis RA 21
Measure name: Con (Conclusion)

| Compound | Endpoint value |
| --- | --- |
| CO[C@@]1(NC(=O)C(C(=O)O)c2ccc(O)cc2)C(=O)N2C(C(=O)O)=C(CSc3nnnn3C)CO[C@@H]21 (stereo partly shown) | Ind (Indifference (Ind)) |
| Cc1onc(-c2ccccc2)c1C(=O)N[C@@H]1C(=O)N2[C@@H]1SC(C)(C)[C@@H]2C(=O)O | Ind (Indifference (Ind)) |
| NC[C@H]1O[C@H](O[C@H]2[C@H](O)[C@@H](O[C@H]3O[C@H](CO)[C@@H](O)[C@H](N)[C@H]3O)[C@H](N)C[C@@H]2N)[C@H](O)[C@@H](O)[C@@H]1O | Ind (Indifference (Ind)) |
| [H]/N=C(/N)N[C@H]1[C@H](O)[C@@H](O)[C@H](O[C@@H]2O[C@@H](C)[C@](O)(C=O)[C@H]2O[C@@H]2O[C@@H](CO)[C@H](O)[C@@H](O)[C@@H]2NC)[C@@H](N/C(N)=N\[H])[C@@H]1O | Ind (Indifference (Ind)) |
| CO[C@H]1/C=C/O[C@@]2(C)Oc3c(C)c(O)c4c(O)c(c(/C=N/N5CCN(C)CC5)c(O)c4c3C2=O)NC(=O)/C(C)=C\C=C\[C@H](C)[C@H](O)[C@@H](C)[C@@H](O)[C@@H](C)[C@H](OC(C)=O)[C@@H]1C | Ad (Additivity (Ad)) |
| Cc1onc(-c2ccccc2Cl)c1C(=O)N[C@@H]1C(=O)N2[C@@H]1SC(C)(C)[C@@H]2C(=O)O | Ad (Additivity (Ad)) |
| CN[C@H](CC(C)C)C(=O)N[C@H]1C(=O)N[C@@H](CC(N)=O)C(=O)N[C@H]2C(=O)N[C@H]3C(=O)N[C@H](C(=O)N[C@H](C(=O)O)c4cc(O)cc(O)c4-c4cc3ccc4O)[C@H](O)c3ccc(c(Cl)c3)Oc3cc2cc(c3O[C@@H]2O[C@H](CO)[C@@H](O)[C@H](O)[C@H]2O[C@H]2C[C@](C)(N)[C@H](O)[C@H](C)O2)Oc2ccc(cc2Cl)[C@H]1O | Ad (Additivity (Ad)) |
| CO[C@@H]1[C@@H](OC(N)=O)[C@@H](O)[C@H](Oc2ccc3c(O)c(NC(=O)c4ccc(O)c(CC=C(C)C)c4)c(=O)oc3c2C)OC1(C)C | Ind (Indifference (Ind)) |
| COc1cc(Cc2cnc(N)nc2N)cc(OC)c1OC | Ad (Additivity (Ad)) |
| CCN1CCN(C(=O)N[C@@H](C(=O)N[C@@H]2C(=O)N3[C@@H]2SC(C)(C)[C@@H]3C(=O)O)c2ccccc2)C(=O)C1=O | Ind (Indifference (Ind)) |
| CC[C@H]1OC(=O)[C@H](C)[C@@H](O[C@H]2C[C@@](C)(OC)[C@@H](O)[C@H](C)O2)[C@H](C)[C@@H](O[C@@H]2O[C@H](C)C[C@H](N(C)C)[C@H]2O)[C@](C)(O)C[C@@H](C)/C(=N\OCOCCOC)[C@H](C)[C@@H](O)[C@]1(C)O | Ind (Indifference (Ind)) |
| CC1(C)S[C@@H]2[C@H](NC(=O)[C@H](N)c3ccccc3)C(=O)N2[C@H]1C(=O)O | Ind (Indifference (Ind)) |

Hello, the source for this data is patent US20200038399A1, in case you need it.
